# System: JVM-3 (B-Cell Non-Hodgkin's Lymphoma)
# ASSAY SUMMARY: combination Emax (second highest fraction inhibited in the dose matrix, 72 h); higher = more inhibition; extreme values may be limits of the assay
The following molecules are shown together with reported combination Emax values.
ATTRIBUTE MEASURED: combination Emax

* CCN(CCO)CCCOc1ccc2c(Nc3cc(CC(=O)Nc4cccc(F)c4)[nH]n3)ncnc2c1 [AZD2811] + C=CCn1c(=O)c2cnc(Nc3ccc(N4CCN(C)CC4)cc3)nc2n1-c1cccc(C(C)(C)O)n1 [AZD1775] (first compound max 1 µM, partner max 1 µM) | 0.775
* C[C@@H]1COCCN1c1cc(C2([S@](C)(=N)=O)CC2)nc(-c2ccnc3[nH]ccc23)n1 [AZD6738] + O=C(c1cc(Cc2n[nH]c(=O)c3ccccc23)ccc1F)N1CCN(C(=O)C2CC2)CC1 [Olaparib] (first compound max 10 µM, 7x7, partner max 10 µM) | 0.704
* Cc1cc2ncnn2cc1Nc1ncc2c(n1)n(C1CCOCC1)c(=O)n2C [AZD7648] + C[C@@H]1COCCN1C2=NC(=NC(=C2)C3(CC3)[S@](=N)(=O)C)C4=C5C=CNC5=NC=C4 [AZD6738] (first compound max 10 µM, 7x7, partner max 10 µM) | 0.809
* COc1cccc(OCCCN)c1-c1cc(Nc2cnc(C#N)cn2)n[nH]1 [Prexasertib] + C=CCn1c(=O)c2cnc(Nc3ccc(N4CCN(C)CC4)cc3)nc2n1-c1cccc(C(C)(C)O)n1 [AZD1775] (first compound max 1 µM, partner max 1 µM) | 0.973

---

# System: MIA-PaCa-2 (Pancreatic Carcinoma)
# ASSAY SUMMARY: Bliss excess, mean over the matrix (fraction); higher = more synergy
ATTRIBUTE MEASURED: Bliss excess

• CN(CCO)CC[C@H](CSc1ccccc1)Nc1ccc(S(=O)(=O)NC(=O)c2ccc(N3CCC([C@@H](O)c4ccccc4-c4ccc(Cl)cc4)CC3)cc2)cc1S(=O)(=O)C(F)(F)F [AZD4320] + Cc1cc2ncnn2cc1Nc1ncc2c(n1)n(C1CCOCC1)c(=O)n2C [AZD7648] (first compound max 1 µM, 7x7, partner max 10 µM) = -0.0636
• COc1cc2ncnc(Nc3ccc(F)c(Cl)c3)c2cc1OCCCN1CCOCC1 [Gefitinib] + CC(C)n1c(=O)n(C)c2cnc3cc(F)c(-c4ccc(OCCCN5CCCCC5)nc4)cc3c21 [AZD1390] (first compound max 10 µM, 7x7, partner max 0.3 µM) = -0.0307
• NC1(C(=O)N[C@@H](CCO)c2ccc(Cl)cc2)CCN(c2ncnc3[nH]ccc23)CC1 [Capivasertib] + Cn1cnc2c(F)c(Nc3ccc(Br)cc3Cl)c(C(=O)NOCCO)cc21 [Selumetinib] (first compound max 10 µM, 7x7, partner max 10 µM) = 0.0259

---

# Test system: ACHN (Kidney Carcinoma)
# ASSAY SUMMARY: Bliss excess, mean over the matrix (fraction); higher = more synergy
Each entry below carries its reported Bliss excess.
ATTRIBUTE MEASURED: Bliss excess

* COc1nnc2ccc(N3CCC(c4ccc(OCCN5CCN(C)C(=O)[C@H]5C)cc4)CC3)nn12 [AZD5153] + C[C@@H]1COCCN1C2=NC(=NC(=C2)C3(CC3)[S@](=N)(=O)C)C4=C5C=CNC5=NC=C4 [AZD6738] (first compound max 1 µM, 7x7, partner max 10 µM) | 0.0379
* Cc1c2c(nn1C)CSCc1cc(n(C)n1)CSc1cc(c3ccccc3c1)OCCCc1c(C(=O)O)n(C)c3c-2c(Cl)ccc13 [AZD5991] + Cn1cnc2c(F)c(Nc3ccc(Br)cc3Cl)c(C(=O)NOCCO)cc21 [Selumetinib] (first compound max 1 µM, 7x7, partner max 3 µM) | 0.0314

Values were extracted from the supplement of paper PMC11061612.
